Please provide measured SI (HCT116) for the entries that follow.
Tested on: HCT116
Experiment: MTT cytotoxicity assay, HCT116
Format: cell-based, human
Conditions: ratio IC50 HEK293T / IC50 HCT116

Dear colleague, I am looking for the recorded SI (HCT116) of the following compound: O=c1cc(OCc2cn(Cc3nccc4c3[nH]c3ccccc34)nn2)c2cc(Cl)ccc2o1 [4c] >1

Recorded SI (HCT116) of Cc1ccc2oc(=O)cc(OCc3cn(Cc4nccc5c4[nH]c4ccccc45)nn3)c2c1 [4b] , please. <0.5

Please give the measured SI (HCT116) for this compound: Cc1nc(Cn2cc(COc3cc(=O)oc4ccccc34)nn2)cc2c1[nH]c1ccccc12 [5a] <0.1

I'd like to know its SI (HCT116). The compound in question is Cc1nccc2c1[nH]c1cc(OCc3cn(-c4cc(=O)oc5ccc(F)cc45)nn3)ccc12 [12d] >1

Any idea what SI (HCT116) was measured for COc1ccc2c3ccnc(C)c3n(Cc3cn(-c4cc(=O)oc5ccc(Cl)cc45)nn3)c2c1 [13c] ? >1.5

Give the measured SI (HCT116) of Cc1ccc2oc(=O)cc(-n3cc(COc4ccc5c(c4)[nH]c4c(C)nccc45)nn3)c2c1 [12b] . >10.6

====

measureName: melting point

Requested field: melting point. Item: "Cc1ccc2oc(=O)cc(OCc3cn(Cc4cc5c([nH]c6ccccc65)c(C)n4)nn3)c2c1" 263 to 267.5 °C (dec.)

Could you tell me which melting point is on file for "O=c1cc(OCc2cn(Cc3nccc4c3[nH]c3ccccc34)nn2)c2cc(F)ccc2o1" ? 239.5 to 241 °C (dec.)

Look at this molecule and give its reported melting point. Cc1nccc2c1[nH]c1ccc(OCc3cn(-c4cc(=O)oc5ccc(F)cc45)nn3)cc12 [11d] 224.5 to 225.5 °C (dec.)
